Source listed as PubChem BioAssay (NCATS).

Overview of reported max response across a group of compounds:
Test system: NIH3T3
Assay: Cytotoxic Profiling of Annotated Libraries Using Quantitative High-Throughput Screening (AID 1296008); further: on the % scale 0 is the no-effect control and ±100 the full control effect; nearly all actives have a fitted effect of over 60% in size
Details: Five cell lines viability, CellTiter-Glo ATP luminescence, 48-72 h; hits give low values
Results filed as inconclusive are left out. Where a SMILES comes first, the peptide text is derived from it.
recorded metric: max response (%)

INSERT INTO measurements (compound, value) VALUES
  ('N[C@@H](CCNCc1ccc(Cl)cc1)C(=O)N1CCCCC1', -2.5),
  ('COc1cc(/C=C/c2ccccc2)c(C(=O)O)c(O)c1CC=C(C)C', 3.69),
  ('CC(=O)OC1CC(=O)C2(C)C3CC4=C(OC(C)CC4=O)OC3(C)CCC2C1(C)C (stereo not given)', 1.19),
  ('COc1ccc(/C=C/C(=O)N2CCCC2)cc1', -2.69),
  ('Cc1cccc(NC(=O)CN2CCC(c3ccccn3)CC2)c1', 4.5),
  ('N#CC1C(=O)N=C(c2cc(Cl)ccc2O)C=C1c1cc(OCc2ccccc2)cc(OCc2ccccc2)c1 (stereo not given)', 1.6),
  ('CCOc1nc2c(N)ncnc2n1CC', 3.41),
  ('CC(C)(O)/C=C/C(=O)[C@](C)(O)[C@H]1[C@H](O)C[C@@]2(C)[C@@H]3CC=C4[C@@H](C=C(O[C@@H]5O[C@H](CO)[C@@H](O)[C@H](O)[C@H]5O)C(=O)C4(C)C)[C@]3(C)C(=O)C[C@]12C', 1.79),
  ('COCC1OC(OC(C)(C)C2CCC3(C)C=C(C4CCC5C4(C)CC(O)C4OC(C(C)(C)O)CCC45C)CCC3O2)C(NC(C)=O)C(O)C1O (stereo not given)', 1.37),
  ('CC1(C)CCC[C@]2(C)C1CC=C(CO)[C@H]2CC/C(=C/CO)CO (stereo not given in full)', 1.71),
  ('CSCC[C@H](NC(=O)[C@H](CO)NC(=O)[C@H](CCC(=O)O)NC(C)=O)C(=O)N[C@H](C=O)CC(=O)O (Ac-ESMD-aldehyde)', -20.7),
  ('CC1(C)CC[C@]2(C(=O)OC3OC(CO)C(O)C(O)C3O)CC[C@]3(C)C(=CCC4[C@@]5(C)C[C@@H](O)[C@H](OC6OC(C(=O)O)C(O)C(O)C6O)C(C)(C)C5CC[C@]43C)[C@@H]2C1 (stereo not given in full)', -4.63),
  ('CC1CCC2C(C)(C)C(O)C(O)CC2(C)C12Cc1c(O)cc(CO)c(C=O)c1O2 (stereo not given)', 0.788),
  ('Cc1noc2c1-c1ccccc1C(c1ccc(Cl)cc1)=N[C@H]2CC(N)=O', -0.413),
  ('Oc1ccccc1-c1cc(-c2ccccc2F)[nH]n1', 3.17),
  ('CC(C)(O)[C@@H]1CC[C@]2(CO)[C@@H](O)CC[C@](C)(O)[C@H]2[C@@H]1O[C@@H]1O[C@H](CO)[C@@H](O)[C@H](O)[C@H]1O', 0.484),
  ('CC1C(O)C(O)C2C(C(=O)OCCc3ccc(O)cc3)=COC(O[C@@H]3O[C@H](CO)[C@@H](O)[C@H](O)[C@H]3O)C12 (stereo not given in full)', 2.97),
  ('Cc1cc(C(=O)N2Cc3cnn(C)c3Nc3ccccc32)ccc1CNC(=O)N1CCN(Cc2cc(O)cc(O)c2)CC1', -0.633),
  ('COCC1OC(n2cnc3c(=O)[nH]cnc32)C(O)C1O (stereo not given)', -2.27),
  ('NC(=O)c1ccc(F)c2c1C[C@@H](N(C1CCC1)C1CCC1)CO2', 3.88),
  ('NC(=O)NCCCC(NC(=O)Cc1ccccc1)C(=O)O (stereo not given)', 3.99),
  ('C[C@@H]1O[C@@H](O[C@H]2[C@H](O[C@H]3[C@H](O[C@H]4CC[C@@]5(C)C(CC[C@]6(C)C5CC=C5[C@@H]7CC(C)(C)CC(=O)[C@]7(C)CC[C@]56C)[C@@]4(C)CO)O[C@H](C(=O)O)[C@@H](O)[C@@H]3O)O[C@H](CO)[C@H](O)[C@@H]2O)[C@H](O)[C@H](O)[C@H]1O (stereo not given in full)', 0.221),
  ('CC(=O)OC(C)C(C)(O)C(=O)O[C@@H]1CC[C@]2(C)CC(=O)C(=C(C)C)C[C@H]2[C@]1(C)OC(C)=O (stereo not given in full)', -1.04),
  ('CC1(C)CC[C@]2(C(=O)O[C@@H]3O[C@H](CO)[C@@H](O)[C@H](O)[C@H]3O)CC[C@]3(C)C(=CCC4[C@@]5(C)CC[C@H](O[C@@H]6O[C@H](C(=O)O)[C@@H](O[C@@H]7O[C@H](CO)[C@@H](O)[C@H](O)[C@H]7O)[C@H](O)[C@H]6O)C(C)(C)C5CC[C@]43C)C2C1 (stereo not given in full)', 3.38),
  ('COC(O)(CC(C)C)C1Oc2cc(C)[nH]c(=O)c2O1 (stereo not given)', 3.8),
  ('COc1cccc(CNc2ccc(S(=O)(=O)Nc3nc4ccccc4s3)cc2)c1O', -2.92),
  ('CC1(C)CCC[C@@]2(C)[C@H]1[C@H](O)C=C(CO)[C@]2(O)CO', -5.75),
  ('CCC(C)/C=C(C)/C=C/C1=CC2=C(Cl)C(=O)C(C)(OC(C)=O)C(=O)C2=CN1CCCCC(N)C(=O)O (stereo not given)', 3.52),
  ('C=CC(C)(CC/C=C(\C)C(=O)OC[C@H]1O[C@@H](OC(C)(C=C)CC/C=C(\C)C(=O)O[C@H]2[C@H](O)[C@@H](O)[C@H](OC(C)(C=C)CC/C=C(\C)C(=O)O)O[C@@H]2CO)[C@H](O)[C@@H](O)[C@@H]1O)O[C@@H]1O[C@H](CO)[C@@H](O)[C@H](O)[C@H]1O (stereo not given in full)', -1.72),
  ('CC(=O)NC(Cc1c[nH]c2ccccc(=O)c12)C(=O)O (stereo not given)', 1.4);
